// data source = PubChem BioAssay (NCI)

# System: NCI-H23 lung
# PROTOCOL DESCRIPTION: NCI tumour cell line growth inhibition, 48 h
Listed here: items and their measured TGI.
MEASURED ENDPOINT: TGI

# COMPOUND, ASSAY VALUE
records = [
    ("COc1cccc2nc(Nc3cccc(NC(=O)c4ccc(N5CCN(C)CC5)c(C(F)(F)F)c4)c3)ccc12", "10.6 µM"),
    ("NC(CCc1nc(-c2cccc([N+](=O)[O-])c2)cs1)C(=O)O (stereo unspecified)", "> 100 µM"),
    ("Cn1c2c(c3ccccc31)CCN1C[C@@H]3CCCC[C@H]3C[C@@H]21", "> 100 µM"),
    ("N#Cc1ccc(C2OCC3CC=CCC3CO2)cc1 (stereo unspecified)", "> 100 µM"),
    ("CCc1ccc(Oc2c(-c3ccc(OCCc4cccc(C(F)(F)F)c4)cc3O)n[nH]c2C(F)(F)F)cc1", "5.89 µM"),
    ("CCOc1cc(Cl)c(C(C)NC(=O)c2cccc(OC)c2)cc1OCC (stereo unspecified)", "> 100 µM"),
    ("CS(=O)(=O)N1CCC(Nc2ncc(C(=O)c3c(F)cccc3F)c(N)n2)CC1", "> 25 µM"),
    ("O=C(Cc1cc(O)ccc1O)NO", "> 100 µM"),
    ("O=S(=O)(O)c1c(Cl)c(Cl)c(O)c2ncccc12", "29.6 µM"),
    ("Cc1[nH]c(=O)n2c(C)nnc2c1C(=O)O", "> 100 µM"),
    ("Cc1nc2ccc(-n3ncc(C(=O)c4cc5ccccc5[nH]4)c3N)cc2[nH]1", "> 100 µM"),
    ("CC1(C=O)CC(CCc2ccccc2)NC1Cc1ccc(O)cc1 (stereo unspecified)", "43.5 µM"),
    ("NC(=O)c1c[nH]c2ncnc(N)c12", "> 100 µM"),
    ("COC1(OC)CCN(Cc2ccccc2)C1=O", "43.8 µM"),
    ("COc1ccc(OC(=O)N2C/C(=C\\c3ccccc3)C(=O)/C(=C/c3ccccc3)C2)cc1", "17.1 µM"),
    ("Cc1cn(C2CC(O)C(Cn3nncc3Cn3cnc4c(N)ncnc43)O2)c(=O)[nH]c1=O (stereo unspecified)", "> 100 µM"),
    ("O=C(c1ccccc1)n1cc(/C=C/[N+](=O)[O-])c2ccccc21", "37.6 µM"),
    ("CCN1C(=O)/C(=c2\\sc3n(c2=O)C2C(NN=3)N(CC)C(=O)N2CC)c2ccccc21 (stereo unspecified)", "17.6 µM"),
    ("[O-]c1c2c(nn1-c1ccc(F)cc1)c1ccccc1c[n+]2Cc1ccccc1", "55.8 µM"),
    ("Cc1ccc(S(=O)(=O)c2ccc(C)cc2[N+](=O)[O-])c([N+](=O)[O-])c1", "> 100 µM"),
    ("NC(=O)C1=C(O)[C@@]2(O)C(=O)C3=C(O)c4c(O)cccc4CC3C[C@H]2CC1=O (stereo partly specified)", "8.89 µM"),
]
